test-target: hGPR17 (Homo sapiens, UniProt Q13304)
Sequence (Q13304 29-367): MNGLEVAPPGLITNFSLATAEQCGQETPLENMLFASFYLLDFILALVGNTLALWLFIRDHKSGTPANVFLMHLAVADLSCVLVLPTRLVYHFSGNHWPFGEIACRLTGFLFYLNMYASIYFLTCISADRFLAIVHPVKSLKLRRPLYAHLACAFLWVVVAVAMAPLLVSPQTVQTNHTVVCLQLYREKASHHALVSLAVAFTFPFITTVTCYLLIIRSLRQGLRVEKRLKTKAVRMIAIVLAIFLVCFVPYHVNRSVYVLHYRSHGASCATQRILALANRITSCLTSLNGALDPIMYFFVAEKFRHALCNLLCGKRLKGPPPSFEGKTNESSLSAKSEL
assay-details: [35S]GTPγS binding to membranes of 1321N1 cells expressing human GPR17
Format: biochemical
Design: expressed in transfected cells; host or cells: 1321N1 (A1, A5), COS-7 (A3, A6), HEK-293 (A4); pcDNA3.1

[
  {
    "smiles-data": "CC(C)(O)c1ccccc1CC[C@@H](SCC1(CC(=O)O)CC1)c1cccc(/C=C/c2ccc3ccc(Cl)cc3n2)c1",
    "test-target": "hGPR17 (Homo sapiens, UniProt Q13304)",
    "IC50 [nM]": 60
  }
]

* * *

test-target: UniProtKB Q13304
assay-details: [35S]GTPγS binding to membranes of 1321N1 cells expressing human GPR17
Assay type: biochemical
Design: expressed in transfected cells; host or cells: 1321N1 (A1, A5), COS-7 (A3, A6), HEK-293 (A4); pcDNA3.1
measurement-conditions: antagonist of activation induced by 100 nM LTD4; human GPR17

[
  {
    "compound": "O=C(Nc1cccc2c(=O)cc(-c3nnn[nH]3)oc12)c1ccc(OCCCCc2ccccc2)cc1 [Pranlukast]",
    "IC50, nM": 10.5
  }
]
